// provenance: ChEMBL document CHEMBL4376868

Test system: SK-BR-3
Assay: Antiproliferative activity against human SK-BR-3 cells measured after 72 hrs by MTS assay
Assay type: functional, cell-based
Details: SK-BR-3, 72 h
measured.metric: IC50 (nM)

>>> test_value("COc1cc(C(=O)c2cccc(-c3ccc(C)cc3)n2)cc(OC)c1OC")
4.8
>>> test_value("C=C(c1cc(OC)c(OC)c(OC)c1)c1cccc(-c2ccc(C)cc2)n1")
186
>>> test_value("COc1cc(C(=O)c2cccc(-c3ccc(C)c(F)c3)n2)cc(OC)c1OC")
4.4

(A) COc1cc(C(=O)c2cccc(-c3ccsc3)n2)cc(OC)c1OC
(B) CCc1ccc(-c2cccc(C(=O)c3cc(OC)c(OC)c(OC)c3)n2)cc1
(C) COc1cc(C(=O)c2cccc(-c3ccc(C)c(O)c3)n2)cc(OC)c1OC
Order field: IC50 | Direction: descending (largest first) Reply with the labels, ordered as the question asks. A, B, C

(a) COc1cc(C(=O)c2cccc(-c3cc[nH]c3)n2)cc(OC)c1OC
(b) COc1cc(C(=O)c2cccc(-c3c[nH]c4ccccc34)n2)cc(OC)c1OC
Short answer wanted: higher IC50, a or b ? Please reply using the label of the selected record. a
(a: 51.2 nM, b: 19.7 nM)

(a) COc1cc(C(=O)c2cccc(-c3cccc(N)c3)n2)cc(OC)c1OC
(b) COc1cc(C(=O)c2cccc(-c3ccccc3C)n2)cc(OC)c1OC
# query: argmin of IC50 over a and b Please reply using the label of the selected record. a
(a: 38.9 nM, b: 68 nM)
